- Test system: EG VI
- assay-overview: Effects of metal ions, chemical modification reagents, detergents and potential inhibitors on EG VI
- Type: biochemical, Talaromyces emersonii
- condition: Preincubation of enzyme with reagent for 30 min (50 C) prior to addition of substrate
# EV VI activity, Enzyme + reagent (control = 100.0) values compiled below
measure-name: EV VI activity, Enzyme + reagent (control = 100.0)

{"molecule": "O=Cc1ccccc1C=O", "measurement-target": "EG VI", "numeric-readout": 100.0}
{"molecule": "O=C(O)c1cc[c]([Hg+])cc1.[OH-] [p-Hydroxymercuribenzoate]", "measurement-target": "EG VI", "numeric-readout": 98.3}
{"molecule": "O=C(O)c1cc[c]([Hg][Cl])cc1 [p-Chloromercuribenzoate]", "measurement-target": "EG VI", "numeric-readout": 115.4}
{"molecule": "[Na+].[O-][I+3]([O-])([O-])[O-] [Sodium periodate]", "measurement-target": "EG VI", "numeric-readout": 357.1}
{"molecule": "C[S+](C)[O-] [Dimethylsuphoxide]", "measurement-target": "EG VI", "numeric-readout": 124.3}
{"molecule": "O=C(O)CS", "measurement-target": "EG VI", "numeric-readout": 187.1}
{"molecule": "[BH4-].[Na+] [Sodium borohydride]", "measurement-target": "EG VI", "numeric-readout": 125.0}
{"molecule": "CC[n+]1ccc(-c2cccc(S(=O)(=O)[O-])c2)o1", "measurement-target": "EG VI", "numeric-readout": 280.0}

###

# EG V activity, Substrate + reagent (control = 100.0) values compiled below
- Test system: EG V
- assay-overview: Effects of metal ions, chemical modification reagents, detergents and potential inhibitors on EG V
- Format: biochemical, Talaromyces emersonii
- condition: Preincubation of substrate with reagent for 30 min (50 C) prior to addition of enzyme
measure-name: EG V activity, Substrate + reagent (control = 100.0)

{"compound": "[BH4-].[Na+] [Sodium borohydride]", "numeric-readout": 81.5}
{"compound": "O=C(O)CS", "numeric-readout": 148.1}
{"compound": "CC[n+]1ccc(-c2cccc(S(=O)(=O)[O-])c2)o1", "numeric-readout": 121.1}
{"compound": "NC(=O)CI [Iodoacetamide]", "numeric-readout": 87.4}
{"compound": "[Cl-].c1ccc(-c2nn(-c3ccccc3)[n+](-c3ccccc3)n2)cc1 [2,3,5-Triphenyltetrazolium Chloride]", "numeric-readout": 89.1}
{"compound": "O=C1CCC(=O)N1Br [N-Bromosuccinimide (NBS), N-Bromosuccinimide]", "numeric-readout": 0.0}
{"compound": "O=C(O)c1cc[c]([Hg+])cc1.[OH-] [p-Hydroxymercuribenzoate]", "numeric-readout": 261.7}
{"compound": "OC(CS)C(O)CS (racemic)", "numeric-readout": 264.3}

###

- Test system: EG VI
- assay-overview: Effects of metal ions, chemical modification reagents, detergents and potential inhibitors on EG VI
- Assay type: biochemical, Talaromyces emersonii
- condition: Preincubation of enzyme with reagent for 30 min (50 C) prior to addition of substrate
# EV VI activity, Enzyme + reagent (control = 100.0) values compiled below
measure-name: EV VI activity, Enzyme + reagent (control = 100.0)

{"compound": "O[C@H](CS)[C@@H](O)CS [Dithioerythritol]", "result": 657.2}
{"compound": "N[C@@H](CS)C(=O)O [Cysteine]", "result": 170.4}
{"compound": "[Cl-].c1ccc(-c2nn(-c3ccccc3)[n+](-c3ccccc3)n2)cc1 [2,3,5-Triphenyltetrazolium Chloride]", "result": 97.6}
{"compound": "OC(CS)C(O)CS (racemic) [DL-DTT]", "result": 514.3}
{"compound": "O=C1CCC(=O)N1Br [N-Bromosuccinimide (NBS), N-Bromosuccinimide]", "result": 0.0}
{"compound": "NC(=O)CI [Iodoacetamide]", "result": 99.9}

###

# EG VII activity, Enzyme + reagent (control = 100.0) values compiled below
- System: EG VII
- assay-overview: Effects of metal ions, chemical modification reagents, detergents and potential inhibitors on EG VII
- Format: biochemical, Talaromyces emersonii
- condition: Preincubation of enzyme with reagent for 30 min (50 C) prior to addition of substrate
- Description: […] Activity was expressed as a % relative to a control (no metal ion present in incubation mixture). […]
measure-name: EG VII activity, Enzyme + reagent (control = 100.0)

{"molecule": "[BH4-].[Na+] [Sodium borohydride]", "result": 194.0}
{"molecule": "NC(=O)CI [Iodoacetamide]", "result": 101.6}
{"molecule": "[Na+].[O-][I+3]([O-])([O-])[O-] [Sodium periodate]", "result": 300.0}

###

- Test system: EG V
- assay-overview: Effects of metal ions, chemical modification reagents, detergents and potential inhibitors on EG V
- Assay type: biochemical, Talaromyces emersonii
- condition: Preincubation of enzyme with reagent for 30 min (50 C) prior to addition of substrate
If the reported EG V activity, Enzyme + reagent (control = 100.0) equals or exceeds 200, assign Criterion met. If not, assign Criterion not met.

{"molecule": "NC(=O)CI [Iodoacetamide]", "classification": "Criterion not met"}
{"molecule": "O[C@H](CS)[C@@H](O)CS", "classification": "Criterion met"}
{"molecule": "O=C(O)CS", "classification": "Criterion met"}
{"molecule": "O=C1CCC(=O)N1Br [N-Bromosuccinimide (NBS), N-Bromosuccinimide]", "classification": "Criterion not met"}
{"molecule": "C[S+](C)[O-] [Dimethylsuphoxide]", "classification": "Criterion not met"}
{"molecule": "[BH4-].[Na+] [Sodium borohydride]", "classification": "Criterion not met"}
{"molecule": "O=C(O)c1cc[c]([Hg][Cl])cc1 [p-Chloromercuribenzoate]", "classification": "Criterion not met"}
{"molecule": "N[C@@H](CS)C(=O)O", "classification": "Criterion not met"}
{"molecule": "O=C(O)c1cc[c]([Hg+])cc1.[OH-] [p-Hydroxymercuribenzoate]", "classification": "Criterion not met"}
{"molecule": "OC(CS)C(O)CS (racemic)", "classification": "Criterion met"}
{"molecule": "CC[n+]1ccc(-c2cccc(S(=O)(=O)[O-])c2)o1", "classification": "Criterion not met"}
{"molecule": "[Na+].[O-][I+3]([O-])([O-])[O-] [Sodium periodate]", "classification": "Criterion not met"}
{"molecule": "O=Cc1ccccc1C=O", "classification": "Criterion not met"}
{"molecule": "[Cl-].c1ccc(-c2nn(-c3ccccc3)[n+](-c3ccccc3)n2)cc1 [2,3,5-Triphenyltetrazolium Chloride]", "classification": "Criterion not met"}

###

- Tested on: EG V, EG VI and EG VII
- assay-overview: Effects of metal ions, reagents, phenolics and glycosides stated for all three enzymes
- Type: biochemical, Talaromyces emersonii
- condition: 1 mM metal ion
measure-name: effect of metal ion on activity of all three enzymes

{"compound-structure": "[Zn+2]", "result": "enhanced the activity"}
{"compound-structure": "[Mg+2]", "result": "enhanced the activity"}
{"compound-structure": "[Mo]", "result": "enhanced the activity"}
